# Test system: T-47D breast
# method description: NCI tumour cell line growth inhibition, 48 h
value type: TGI

Record request: TGI value, item "ClCc1ccccc1Cn1cnc2c(Cl)nc(Cl)nc21"
5.46 µM

Record request: TGI value, item "COc1cc(C=C(c2ccc(N(C)C)cc2)c2ccc(N(C)C)cc2)c2ccccc2c1OC"
> 100 µM

Record request: TGI value, item COc1cc2c(c(O)c1OC)C(=O)C1CCC(=O)N1C2c1cccc2ccccc12 (stereo unspecified)
> 100 µM

Record request: TGI value, item COC(=O)C1=C(O)C(C(=O)OC)[C@@]2(O)[C@@H](C(=O)OC)C(c3ccc(OC(=O)/C=C/c4ccccc4)cc3)C[C@@H]1[C@@H]2C(=O)OC (stereo partly specified)
> 100 µM

Record request: TGI value, item "CC(=O)NNc1nc(C)c(C(=O)/C=C/C=C/c2ccccc2)s1"
> 100 µM

Record request: TGI value, item "O=C1/C=C/[C@@H](O)[C@@H]2C[C@@H](O)C[C@H]2/C=C/CCC[C@H](CCOCc2ccccc2)O1"
0.556 µM

###

# Test system: UO-31 renal
# method description: NCI tumour cell line growth inhibition, 48 h
value type: TGI

API: value(readout=TGI, system=UO-31 renal) for record Cc1cn(C2CC(OC3CCCCO3)C(CO)O2)c(=O)[nH]c1=O (stereo not given)
> 100 µM

API: value(readout=TGI, system=UO-31 renal) for record "OCCCCC#Cc1ccccc1C#Cc1ccccn1"
> 100 µM

API: value(readout=TGI, system=UO-31 renal) for record "CCc1n[nH]c(=O)n1/N=C/c1ccc(/C=N/n2c(CC)n[nH]c2=O)cc1"
> 100 µM

API: value(readout=TGI, system=UO-31 renal) for record COc1ccc(/C=C2/SC(c3ccc(Cl)cc3)N(NC(=O)CCCCCCCCC(=O)NN3C(=O)/C(=C\c4ccc(OC)c(OC)c4)SC3c3ccc(Cl)cc3)C2=O)cc1OC (stereo not given)
> 100 µM

API: value(readout=TGI, system=UO-31 renal) for record "O=C1/C(=C/c2ccccc2)CN(C(=O)CCN2CCC(=NO)CC2)C/C1=C\c1ccccc1"
2.71 µM

API: value(readout=TGI, system=UO-31 renal) for record "C[C@]12CC[C@@H]3c4ccc(O)cc4CC[C@H]3[C@@H]1CC[C@@H]2NS(=O)(=O)c1ccc(Cl)cc1"
11.9 µM

API: value(readout=TGI, system=UO-31 renal) for record CC(C)(C)OC(=O)NCCC1SC2C=CC1C2 (stereo not given)
> 100 µM

API: value(readout=TGI, system=UO-31 renal) for record "O=c1[nH]cnc2c1sc(=S)n2-c1ccccc1"
> 100 µM

API: value(readout=TGI, system=UO-31 renal) for record "O=C1CC[C@H](NC(=O)Cc2ccccc2)C(=O)N1"
> 1250 µM

API: value(readout=TGI, system=UO-31 renal) for record "Cn1c(=O)c2c(nc3n(Cc4ccccc4)c(=O)c(Br)cn23)n(C)c1=O"
> 100 µM

API: value(readout=TGI, system=UO-31 renal) for record "CC[N+](CC)=c1cc2oc3cc(N(C)C)ccc3nc-2cc1C"
41.9 µM

API: value(readout=TGI, system=UO-31 renal) for record "C=CC(=O)N1CCN(CCCn2c(=O)c(-c3c(Cl)c(OC)cc(OC)c3Cl)cc3cnc(NC)nc32)CC1"
12.4 µM

API: value(readout=TGI, system=UO-31 renal) for record COC(=O)C12C3C4(C(=O)OC)C1C1(C(=O)OC)C2C3(C(=O)OC)C41C(=O)N(C(C)C)C(C)C (stereo not given)
> 100 µM

API: value(readout=TGI, system=UO-31 renal) for record "COc1ccc2c(c1)/C(=N/OC(C)=O)c1c-2c(Nc2cccc(/C(C)=N/OC(C)=O)c2)nc2ccccc12"
> 100 µM

API: value(readout=TGI, system=UO-31 renal) for record "Cc1cn(CCCC2=NCCCN2)c(=O)[nH]c1=O"
> 100 µM

API: value(readout=TGI, system=UO-31 renal) for record CCC[CH2][Sn]1([CH2]CCC)[O]CC(CN2CCCCC2)[O]1 (stereo not given)
2.14 µM

API: value(readout=TGI, system=UO-31 renal) for record COc1ccccc1N1C(=O)CSC1c1c[nH]c2ccccc12 (stereo not given)
> 100 µM

API: value(readout=TGI, system=UO-31 renal) for record "COc1cccc2[nH]c3c4c(c5c(c3c12)C(=O)N(CN1CCN(C)CC1)C5=O)CCC4"
> 23.8 µM

API: value(readout=TGI, system=UO-31 renal) for record "CCOC(=O)O/C(=C\c1ccc(OC)cc1)c1c(OC(=O)OCC)n(C(=O)OCC)c2ccccc12"
> 100 µM

API: value(readout=TGI, system=UO-31 renal) for record "Nc1n[nH]c2cccc(C#Cc3cccc(NC(=O)c4ccc(N5CCOCC5)c(C(F)(F)F)c4)c3)c12"
2.92 µM

###

# Test system: SF-295 CNS
# method description: NCI tumour cell line growth inhibition, 48 h
Where a SMILES comes first, the peptide text is derived from it. Bridges are numbered along the chain shown (N, C = ends). [ ]: non-standard residue; d: D form. The star is where a group is joined. ξ: configuration not given here. X26 = O=C(/C=C/C=C/C=C/C=C/C=C/C(=O)*)NC1=C(O)CCC1=O; Pro(4R-Me) = C[C@H]1CN[C@H](C(=O)O)C1; NMeA = CN[C@@H](C)C(=O)O; ξF = NC(Cc1ccccc1)C(=O)O; ξA = CC(N)C(=O)O
value type: TGI

Record request: TGI value, item "C=C(CBr)CCCOCc1ccccc1"
> 100 µM

Record request: TGI value, item "CCOC(=O)C1=c2[nH]c3cccc4cccc(c43)n2C(=O)CC1"
> 100 µM

Record request: TGI value, item "O=C(/C=C/c1ccc2ccccc2c1)NCc1ccc(C(=O)NCc2ccccc2)cc1"
> 100 µM

Record request: TGI value, item CC1=C(C(=O)Nc2ccc(F)c(Cl)c2)C(c2cccc(Cl)c2)NC(=S)N1 (configuration not stated)
> 50 µM

Record request: TGI value, item "OCCCC(O)(c1ccccc1)c1ccccc1"
> 100 µM

Record request: TGI value, item "COc1cccc2[nH]c3c4c(c5c(c3c12)C(=O)N(CN1CCN(C)CC1)C5=O)CCC4"
25.6 µM

Record request: TGI value, item "COC1=C(C)C(=O)C2=C(C1=O)[C@@H]1[C@@H]3Cc4c(OC(=O)CO)c(C)c(OC)c(O)c4[C@H](CNC(=O)C(C)=O)N3[C@@H](C#N)[C@H](C2)N1C"
2.28 µM

Record request: TGI value, item "CN=c1ssc(/N=C(\SC)N(C)C)[n+]1C"
> 100 µM

Record request: TGI value, item "CN(C)CCn1c(=O)c2ccc(NCCCN(C)CCCNc3ccc4c(=O)n(CCN(C)C)c(=O)n5c6ccccc6c(=O)c3c45)c3c(=O)c4ccccc4n(c1=O)c23"
1.54 µM

Record request: TGI value, item "O=C(c1ccc(Cl)cc1)N(C(=S)OC12CC3CC(CC(C3)C1)C2)c1ccccc1"
> 100 µM

Record request: TGI value, item "CCO/C(O)=C(/C(=N)N1CCOCC1)C(=O)Nc1ccc(Cl)cc1"
> 100 µM

Record request: TGI value, item CCCCC(CCCCCC(CCCC)C1NC(C)Cc2cc(OC)c(OC)cc21)C1NC(C)Cc2cc(OC)c(OC)cc21 (configuration not stated)
3.79 µM

Record request: TGI value, item CC1NC(=O)[C@H](C)N(C)C(=O)[C@@H]2CCCN2C(=O)[C@@H](NC(=O)C(Cc2ccccc2)NC(=O)/C=C/C=C/C=C/C=C/C=C/C(=O)NC2=C(O)CCC2=O)COC(=O)[C@@H]2C[C@@H](C)CN2C1=O (stereo partly drawn) (X26-[ξF]SP[NMeA][ξA][Pro(4R-Me)]; ester 2-C)
> 100 µM

Record request: TGI value, item "CCCC[C@H](NC(=O)[C@H]1CCCCN1C)C(=O)N(C)[C@H](C[C@@H](OC(C)=O)c1nc(C(=O)N[C@@H](Cc2ccccc2)C[C@H](C)C(=O)OCC)cs1)C(C)C"
4.34 µM

Record request: TGI value, item "O=C(Nc1ccc2[nH]c3ccccc3c2c1)c1ccccc1Cl"
> 100 µM

Record request: TGI value, item C[C@]12CC[C@@H]3c4cc(Br)c(O)c(Br)c4CC[C@H]3[C@@H]1CC(Br)C2=O (some centres not stated)
33.1 µM

Record request: TGI value, item "O=C(Cc1cc[n+]([O-])cc1)C(=O)Nc1cc(Cl)c(Cl)cc1Cl"
> 100 µM

###

Field: TGI. Provide a value for each of the compounds that follow.
# Test system: MDA-N
# method description: NCI tumour cell line growth inhibition, 48 h

Record request: TGI value, item "C#Cc1cc(-c2nc3ccccc3s2)ccc1N"
97.6 µM

Record request: TGI value, item "Clc1cc(OC23CC4CC(CC(C4)C2)C3)nc(Cl)n1"
> 100 µM

Record request: TGI value, item "C[CH2][Sn]([CH2]C)([O]C(=O)c1ccccc1F)[O]C(=O)c1ccccc1F"
> 100 µM

Record request: TGI value, item "COc1cc(C(=O)O)ccc1OS(=O)(=O)O"
> 100 µM

Record request: TGI value, item "CCCCCC(=O)Nc1n[nH]nc1C#N"
> 100 µM

Record request: TGI value, item "O=c1[nH]c(=O)n(COCCOCc2ccccc2)cc1Nc1ccccc1"
> 100 µM
